Catalogue of compounds with associated Potency
# Assay remarks: qHTS RealTime-Glo MT Cell Viability Assay in HEK293 cells - 40 hour (AID 1224874); note: potency is the fitted concentration of half-maximal effect; nearly all actives have a fitted effect of over 50% in size
# Condition parameters: RealTime-Glo luminescence
Records with an inconclusive call do not appear. Active and inactive are the calls of the source. Calls come from the whole dose curve; as a rule, active = well fitted cell-killing curve with a large enough effect in the repeat runs; inconclusive = weak or mixed curves, or effect the other way; inactive = flat fitted curve, though single readings scatter.

Worked examples, 5 compounds total:
[
  {
    "Compound": "O=S1(=O)OCC2C(CO1)C1(Cl)C(Cl)=C(Cl)C2(Cl)C1(Cl)Cl (centres undefined)",
    "Potency": "21.9 µM (active)"
  },
  {
    "Compound": "N#CC(C#N)=NNc1cccc(Cl)c1",
    "Potency": "5.49 µM (active)"
  },
  {
    "Compound": "c1ccc(Nc2ccc(Nc3ccccc3)cc2)cc1",
    "Potency": "19.4 µM (active)"
  },
  {
    "Compound": "[F][Sn]([c]1ccccc1)([c]1ccccc1)[c]1ccccc1",
    "Potency": "0.436 µM (active)"
  },
  {
    "Compound": "O=C(NC(=O)c1c(F)cccc1F)Nc1ccc(Oc2ccc(C(F)(F)F)cc2Cl)cc1F",
    "Potency": "43.6 µM (active)"
  }
]

Query: Please give measured Potency of the following entry: C[C@H]1[C@H](c2ccc(Cl)cc2)SC(=O)N1C(=O)NC1CCCCC1
Result: 43.6 µM (active)

Query: Please give measured Potency of the following entry: CC(=O)[O][Pb]([c]1ccccc1)([c]1ccccc1)[c]1ccccc1
Result: 0.389 µM (active)

Query: Please give measured Potency of the following entry: S=C=NCCc1ccccc1
Result: 49.1 µM (active)

Query: Please give measured Potency of the following entry: O=[N+]([O-])c1cc(C(F)(F)F)c(Cl)c([N+](=O)[O-])c1Nc1ncc(C(F)(F)F)cc1Cl
Result: 1.55 µM (active)

Query: Please give measured Potency of the following entry: CC(=O)[O][Sn]([c]1ccccc1)([c]1ccccc1)[c]1ccccc1
Result: 0.0347 µM (active)

Query: Please give measured Potency of the following entry: CCN1CCC2(CC1)COc1cc3c(cc12)N(C(=O)c1ccc(-c2ccc(-c4nnc(C)o4)cc2C)cc1)CC3
Result: 11.3 µM (active)

Query: Please give measured Potency of the following entry: C=CC(=O)[O][Sn]([CH2]CCC)([CH2]CCC)[CH2]CCC
Result: 0.389 µM (active)

Query: Please give measured Potency of the following entry: N#Cc1sc2c(=O)c3ccccc3c(=O)c=2sc1C#N
Result: 17.4 µM (active)

Query: Please give measured Potency of the following entry: CCC[CH2][Sn]([CH2]CCC)([O]C(C)=O)[O]C(C)=O
Result: 0.0698 µM (active)

Query: Please give measured Potency of the following entry: Cc1ccc([N+](=O)[O-])[c]2c1[O][Hg]2
Result: 3.01 µM (active)

Query: Please give measured Potency of the following entry: CCCCCCCc1ccc(O)cc1
Result: 21.9 µM (active)

Query: Please give measured Potency of the following entry: CCC[CH2][Sn]([CH2]CCC)([CH2]CCC)[CH2]CCC
Result: 7.76 µM (active)

Query: Please give measured Potency of the following entry: Clc1ccc(C(Cl)(Cl)Cl)cc1Cl
Result: 33.9 µM (active)

Query: Please give measured Potency of the following entry: [Cl][Hg][c]1ccccc1
Result: 1.1 µM (active)

###

# Assayed target: Thyrotropin-releasing hormone receptor (Homo sapiens)
# Assay remarks: qHTS assay to identify small molecule agonists of the thyrotropin-releasing hormone receptor (TRHR) signaling pathway (AID 1346891);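 note: HEK293 cells expressing TRHR with calcium dye readout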
# Condition parameters: TRHR-HEK293 calcium fluorescence, agonist mode; series mostly up to 57.6 µM
# Description: National Center for Advancing Translational Sciences [NCATS] NIH Chemical Genomics Center [NCGC] U.S. Environmental Protection Agency [EPA] National Institutes of Environmental Health Sciences [NIEHS] National Toxicology Program [NTP] […] A compound/drug can either activate (agonist) or suppress (antagonist) GPCRs that can be monitored by levels of intracellular calcium. […]
The source made the active and inactive calls. The call rests on the fitted dose curve.
// one of y for active, n for inactive, no free text

Before answering, review these 2 worked examples.
[
  {
    "Compound": "FC(F)C(F)(F)OCC(Cn1cncn1)c1ccc(Cl)cc1Cl (stereo not given)",
    "Label": "n"
  },
  {
    "Compound": "COP(=S)(OC)Oc1nc(Cl)c(Cl)cc1Cl",
    "Label": "n"
  }
]

We now examine a further compound.
Query: Please share the test call associated with CC(Cc1ccccc1)N(C)Cc1ccco1 (stereo not given) .
Result: n

###

# Assay remarks: A CellTox Green Cytotoxicity Assay to monitor cytotoxicity in HepG2 cells - 24 hour (AID 1224878); note: nearly all actives have a fitted effect of over 45% in size
# Condition parameters: CellTox Green fluorescence; series mostly up to 76.8 µM
Results filed as inconclusive are left out. Activity calls are given as the source filed them. The call rests on the fitted dose curve; in most records, active means well fitted activation curve with a large enough effect in the repeat runs; inconclusive means weak or mixed curves; inactive means flat fitted curve, though single readings scatter.
// one of TRUE (active), FALSE (inactive), no free text

Before answering, review these 5 worked examples.
[
  {
    "Structure smiles": "O=C(N[C@H]1N=C(c2ccccc2F)c2cccc3c2N(CC3)C1=O)c1cc2ccccc2[nH]1",
    "Label": "FALSE"
  },
  {
    "Structure smiles": "CCC1(CC)C(=O)N=C(O)NC1=O",
    "Label": "FALSE"
  },
  {
    "Structure smiles": "O=C1C[C@@H]2OCC=C3CN4CC[C@]56c7ccccc7N1[C@H]5[C@H]2[C@H]3C[C@H]46",
    "Label": "FALSE"
  },
  {
    "Structure smiles": "CCc1cccc(C)c1N(C(=O)CCl)[C@@H](C)COC",
    "Label": "TRUE"
  },
  {
    "Structure smiles": "Nc1ccc(N=Nc2ccccc2)cc1",
    "Label": "FALSE"
  }
]

We now examine a further compound.
Query: Please share the test call associated with C1=CCC=C1 .
Result: FALSE

###

# Assay remarks: qHTS RealTime-Glo MT Cell Viability Assay in HepG2 cells - 32 hour (AID 1224877); note: nearly all actives have a fitted effect of over 55% in size
# Condition parameters: RealTime-Glo luminescence; series mostly up to 76.8 µM
Results filed as inconclusive are left out. Calls of active or inactive are those of the source. The call rests on the fitted dose curve; in most records, active means well fitted cell-killing curve with a large enough effect in the repeat runs; inconclusive means weak or mixed curves; inactive means flat fitted curve, though single readings scatter.
// one of yes (active), no (inactive), no free text

Before answering, review these 5 worked examples.
[
  {
    "Compound": "CCC[CH2][Sn]([CH2]CCC)([O]C(C)=O)[O]C(C)=O",
    "Label": "yes"
  },
  {
    "Compound": "Nc1ccccc1-c1ccccc1",
    "Label": "no"
  },
  {
    "Compound": "O=c1c2ccccc2c(=O)c2c1cc(Cl)c1[nH]c3c([nH]c12)c(Cl)cc1c(=O)c2ccccc2c(=O)c13",
    "Label": "no"
  },
  {
    "Compound": "CCC(C)c1cccc(C(C)CC)c1O (stereo not given)",
    "Label": "no"
  },
  {
    "Compound": "CC(C)c1c(CN(C)C(C)Cc2ccccc2)n(C)n(-c2ccccc2)c1=O (stereo not given)",
    "Label": "no"
  }
]

Query: Please share the test call associated with O=[N+]([O-])c1ccc(Cl)c(Cl)c1Cl .
Result: no

Query: Please share the test call associated with Nc1c(Cl)c(Cl)c(Cl)c(Cl)c1Cl .
Result: no

Query: Please share the test call associated with O=C(NC(=O)c1c(F)cccc1F)Nc1ccc(Oc2ccc(C(F)(F)F)cc2Cl)cc1F .
Result: no

Query: Please share the test call associated with CCOC(=O)CCN(SN(C)C(=O)Oc1cccc2c1OC(C)(C)C2)C(C)C .
Result: no

Query: Please share the test call associated with CC1=C2C[C@H]3[C@@H](CC=C4C[C@@H](O)CC[C@@]43C)[C@@H]2CC[C@]12O[C@@H]1C[C@H](C)CN[C@H]1[C@H]2C .
Result: no

###

# Assayed target: Aryl hydrocarbon receptor (Homo sapiens) (UniProt P35869)
# Sequence (P35869 whole entry, looked up): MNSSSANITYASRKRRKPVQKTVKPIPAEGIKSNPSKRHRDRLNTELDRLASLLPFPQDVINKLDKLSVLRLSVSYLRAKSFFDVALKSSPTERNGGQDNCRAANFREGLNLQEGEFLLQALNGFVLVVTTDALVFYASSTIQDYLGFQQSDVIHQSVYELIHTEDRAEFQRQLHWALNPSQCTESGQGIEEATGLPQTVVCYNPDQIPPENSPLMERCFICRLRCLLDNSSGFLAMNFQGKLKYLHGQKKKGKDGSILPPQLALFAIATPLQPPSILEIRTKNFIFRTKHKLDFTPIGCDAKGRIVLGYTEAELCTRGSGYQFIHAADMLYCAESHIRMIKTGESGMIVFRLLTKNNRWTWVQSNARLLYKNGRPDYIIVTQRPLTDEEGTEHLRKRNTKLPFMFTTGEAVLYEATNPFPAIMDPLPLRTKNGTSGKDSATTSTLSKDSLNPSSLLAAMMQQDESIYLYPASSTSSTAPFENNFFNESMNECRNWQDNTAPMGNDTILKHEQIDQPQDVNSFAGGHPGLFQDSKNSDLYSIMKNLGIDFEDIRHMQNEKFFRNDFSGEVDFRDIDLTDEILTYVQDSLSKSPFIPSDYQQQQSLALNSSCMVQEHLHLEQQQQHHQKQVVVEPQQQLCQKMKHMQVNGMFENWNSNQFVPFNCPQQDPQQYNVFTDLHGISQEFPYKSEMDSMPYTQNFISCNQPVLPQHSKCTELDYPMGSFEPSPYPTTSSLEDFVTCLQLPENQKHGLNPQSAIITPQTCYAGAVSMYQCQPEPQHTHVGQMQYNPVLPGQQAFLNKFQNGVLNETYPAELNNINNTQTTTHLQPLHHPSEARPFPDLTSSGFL
# Assay remarks: qHTS assay to identify small molecule that activate the aryl hydrocarbon receptor (AhR) signaling pathway (AID 743085);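 note: HG2L7.5c1 human HepG2 liver cells with stably integrated DRE-driven firefly reporter; nearly all actives have a fitted effect of over 15% in size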
# Condition parameters: HepG2 AhR-luc (HG2L7.5c1), luciferase, 24 h; series mostly up to 70.3 µM
Inconclusive results are not listed. Calls of active or inactive are those of the source. Calls follow the shape of the dose curve; as a rule, active = well fitted activation curve with a large enough effect in the repeat runs; inconclusive = weak or mixed curves; inactive = no such curve, though single readings can be large or run the other way.
// one of TRUE (active), FALSE (inactive), no free text

Before answering, review these 4 worked examples.
[
  {
    "Compound": "N#Cc1c2ccccc2cc2ccccc12",
    "Assayed target": "Aryl hydrocarbon receptor (Homo sapiens) (UniProt P35869)",
    "Label": "FALSE"
  },
  {
    "Compound": "Clc1cc(Cl)c(-c2cc(Cl)c(Cl)cc2Cl)cc1Cl",
    "Assayed target": "Aryl hydrocarbon receptor (Homo sapiens) (UniProt P35869)",
    "Label": "FALSE"
  },
  {
    "Compound": "CCCCCCCc1ccc(O)cc1",
    "Assayed target": "Aryl hydrocarbon receptor (Homo sapiens) (UniProt P35869)",
    "Label": "FALSE"
  },
  {
    "Compound": "CC1(C)C(C=C(Cl)Cl)C1C(=O)OC(C#N)c1ccc(F)c(Oc2ccccc2)c1 (stereo unspecified)",
    "Assayed target": "Aryl hydrocarbon receptor (Homo sapiens) (UniProt P35869)",
    "Label": "FALSE"
  }
]

Query: Please share the test call associated with O=S1(=O)OCC2C(CO1)C1(Cl)C(Cl)=C(Cl)C2(Cl)C1(Cl)Cl (stereo unspecified) .
Result: FALSE

Query: Please share the test call associated with CC(C)C(Br)C(=O)NC(N)=O (stereo unspecified) .
Result: FALSE

Query: Please share the test call associated with CN1[C@@H]2CC[C@H]1CC(O)C2 (stereo partly specified) .
Result: FALSE

Query: Please share the test call associated with N#CC(C#N)=NNc1cccc(Cl)c1 .
Result: FALSE

Query: Please share the test call associated with CCN(CC)C(=S)S .
Result: FALSE

Query: Please share the test call associated with O=C(O)[C@H](O)[C@@H](O)C(=O)O .
Result: FALSE

Query: Please share the test call associated with O=C1C2(Cl)C3(Cl)C4(Cl)C(Cl)(Cl)C5(Cl)C3(Cl)C1(Cl)C5(Cl)C24Cl (stereo unspecified) .
Result: FALSE

Query: Please share the test call associated with O.O.O.O.O.O.O.O=S(=O)([O-])[O-].[Co+2] .
Result: FALSE

Query: Please share the test call associated with CC(C)C(Nc1ccc(C(F)(F)F)cc1Cl)C(=O)OC(C#N)c1cccc(Oc2ccccc2)c1 (stereo unspecified) .
Result: FALSE
